Biological target: Full-length human recombinant N-term FLAG-tagged MASTL protein (Homo sapiens, UniProt Q96GX5)
Sequence (Q96GX5 whole entry): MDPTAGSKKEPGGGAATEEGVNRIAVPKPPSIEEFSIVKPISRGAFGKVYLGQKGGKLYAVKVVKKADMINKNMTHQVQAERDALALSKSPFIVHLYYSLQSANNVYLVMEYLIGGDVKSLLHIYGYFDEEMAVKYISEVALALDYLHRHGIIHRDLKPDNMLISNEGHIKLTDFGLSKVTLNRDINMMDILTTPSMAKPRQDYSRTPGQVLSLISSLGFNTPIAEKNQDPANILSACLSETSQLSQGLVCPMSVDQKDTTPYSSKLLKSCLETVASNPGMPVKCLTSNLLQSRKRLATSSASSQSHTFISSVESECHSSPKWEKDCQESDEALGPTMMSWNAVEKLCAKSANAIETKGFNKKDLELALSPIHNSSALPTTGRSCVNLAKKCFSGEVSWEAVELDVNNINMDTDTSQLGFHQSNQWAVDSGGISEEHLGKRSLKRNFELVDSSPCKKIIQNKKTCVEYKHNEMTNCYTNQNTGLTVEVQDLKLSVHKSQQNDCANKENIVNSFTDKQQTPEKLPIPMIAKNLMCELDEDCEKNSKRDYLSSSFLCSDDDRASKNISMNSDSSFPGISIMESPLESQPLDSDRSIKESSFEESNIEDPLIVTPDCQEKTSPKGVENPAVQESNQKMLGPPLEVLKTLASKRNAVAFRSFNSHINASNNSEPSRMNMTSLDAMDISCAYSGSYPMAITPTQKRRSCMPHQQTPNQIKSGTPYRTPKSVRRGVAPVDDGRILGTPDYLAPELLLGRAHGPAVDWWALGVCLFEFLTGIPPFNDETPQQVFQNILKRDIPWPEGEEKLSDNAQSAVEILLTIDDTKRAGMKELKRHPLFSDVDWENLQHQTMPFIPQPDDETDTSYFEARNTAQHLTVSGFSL
Experiment: MASTL enzyme kinase assay (CHEF PhosphoSens)
Conditions: MASTL Ki (nM), 3 nM MASTL, 1 mM ATP, room temperature; geometric mean of at least 3 independent determinations (* denotes n = 2)
True if Ki is below 0.07 nM. False if not; exact matches included in False.

compound	className
CNC(c1ccnc(Nc2cc3cc(-c4cnnn4C)nc(N)c3cn2)c1)C(C)(C)C (single isomer, unassigned) [Example 35]	False
CCC1(NC)CCc2cnc(Nc3cc4cc(-c5cnnn5C)nc(N)c4cn3)cc21 (single isomer, unassigned) [Example 5]	True
CNC1(c2ccnc(Nc3cc4cc(-c5cnnn5C)nc(N)c4cn3)c2)CCCC1 [Example 27]	False
CCC1(NC)CCc2cnc(Nc3cc4cc(-c5cnnn5C)nc(N)c4cn3)cc21 (single isomer, unassigned) [Example 6]	False
CCC1(NC)CCc2c1ccnc2Nc1cc2cc(-c3cnnn3C)nc(N)c2cn1 (single isomer, unassigned) [Example 3]	False
CNC(C)(COC)c1ccnc(Nc2cc3cc(-c4cnnn4C)nc(N)c3cn2)c1 (single isomer, unassigned) [Example 32]	False
CNC(C)(c1ccnc(Nc2cc3cc(-c4cnnn4C)nc(N)c3cn2)c1)C(C)C (single isomer, unassigned) [Example 30]	True
